- assay_system: Adrenergic receptor alpha-1 (Rattus norvegicus, UniProt P15823+P23944+P43140)
- Sequence (P15823 whole entry): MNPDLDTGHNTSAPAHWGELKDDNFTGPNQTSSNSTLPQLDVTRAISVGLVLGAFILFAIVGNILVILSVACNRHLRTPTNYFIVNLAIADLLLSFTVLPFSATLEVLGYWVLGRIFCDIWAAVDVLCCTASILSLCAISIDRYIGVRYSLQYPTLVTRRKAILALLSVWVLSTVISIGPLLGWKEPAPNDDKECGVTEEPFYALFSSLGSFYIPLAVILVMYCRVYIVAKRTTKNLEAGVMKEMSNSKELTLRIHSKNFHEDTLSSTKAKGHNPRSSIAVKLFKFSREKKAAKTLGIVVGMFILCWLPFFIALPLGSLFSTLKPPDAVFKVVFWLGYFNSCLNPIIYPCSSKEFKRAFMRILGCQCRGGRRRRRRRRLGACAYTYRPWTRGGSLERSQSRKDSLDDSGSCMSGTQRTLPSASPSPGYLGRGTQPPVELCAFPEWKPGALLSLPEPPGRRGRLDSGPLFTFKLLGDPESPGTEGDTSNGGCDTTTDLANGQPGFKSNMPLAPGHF
- Sequence (P23944 whole entry): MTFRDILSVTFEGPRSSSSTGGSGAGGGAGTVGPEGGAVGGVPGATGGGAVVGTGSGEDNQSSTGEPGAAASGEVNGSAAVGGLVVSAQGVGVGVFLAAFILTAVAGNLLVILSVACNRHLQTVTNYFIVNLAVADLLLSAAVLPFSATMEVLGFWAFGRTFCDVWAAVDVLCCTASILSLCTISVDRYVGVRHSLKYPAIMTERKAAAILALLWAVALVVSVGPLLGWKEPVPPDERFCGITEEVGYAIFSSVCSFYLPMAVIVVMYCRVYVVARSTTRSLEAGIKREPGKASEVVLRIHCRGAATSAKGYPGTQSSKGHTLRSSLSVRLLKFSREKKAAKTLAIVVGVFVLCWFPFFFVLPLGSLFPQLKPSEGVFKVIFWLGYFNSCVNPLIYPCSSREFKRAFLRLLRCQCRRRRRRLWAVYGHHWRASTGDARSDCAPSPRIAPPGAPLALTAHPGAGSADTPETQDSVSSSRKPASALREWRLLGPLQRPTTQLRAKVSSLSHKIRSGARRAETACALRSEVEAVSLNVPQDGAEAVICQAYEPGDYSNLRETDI
- Sequence (P43140 whole entry): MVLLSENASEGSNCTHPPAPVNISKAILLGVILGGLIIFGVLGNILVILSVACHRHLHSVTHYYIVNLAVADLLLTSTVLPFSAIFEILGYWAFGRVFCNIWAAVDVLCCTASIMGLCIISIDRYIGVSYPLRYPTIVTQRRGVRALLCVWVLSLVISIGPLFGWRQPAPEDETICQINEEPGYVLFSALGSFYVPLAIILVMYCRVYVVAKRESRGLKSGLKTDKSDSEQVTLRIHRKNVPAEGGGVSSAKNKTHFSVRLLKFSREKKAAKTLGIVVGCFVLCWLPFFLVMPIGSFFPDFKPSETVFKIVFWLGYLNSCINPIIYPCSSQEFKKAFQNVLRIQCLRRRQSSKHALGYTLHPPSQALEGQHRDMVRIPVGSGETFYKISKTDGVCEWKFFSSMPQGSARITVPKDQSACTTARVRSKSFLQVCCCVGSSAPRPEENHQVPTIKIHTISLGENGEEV
- experiment_summary: Inhibition of [3H]prazosin binding to alpha-1 adrenergic receptor from rat cortical membranes
- Type: cell membranes, Membrane
measurement_name: IC50 (nM)

>>> reported("O=C1NCCN1CCN1CCN([C@@H]2C[C@@H](c3ccc(F)cc3)c3ccccc32)CC1 (stereo in doubt; (+)2) [IRINDALONE]")
26

1: Cl.Cl.Oc1nc2ccccc2n1CCN1CCN(C2CC(c3ccc(F)cc3)c3ccc(F)cc32)CC1 (centres undefined)
2: CC(C)N1CCN(CCN2CCN(C3CC(c4ccc(F)cc4)c4ccc(F)cc43)CC2)C1=O.Cl.Cl (centres undefined)
3: CN1CCN([C@H]2C[C@H](c3ccc(F)cc3)c3ccc(F)cc32)CC1
Please put the entries in order of rising IC50. Your answer should be the labels, listed in the requested order.
2, 3, 1
(2: 28 nM, 3: 85 nM, 1: 160 nM)

----------
- assay_system: Adrenergic receptor alpha-1 (Rattus norvegicus, UniProt P15823+P23944+P43140)
- Sequence (P15823 whole entry): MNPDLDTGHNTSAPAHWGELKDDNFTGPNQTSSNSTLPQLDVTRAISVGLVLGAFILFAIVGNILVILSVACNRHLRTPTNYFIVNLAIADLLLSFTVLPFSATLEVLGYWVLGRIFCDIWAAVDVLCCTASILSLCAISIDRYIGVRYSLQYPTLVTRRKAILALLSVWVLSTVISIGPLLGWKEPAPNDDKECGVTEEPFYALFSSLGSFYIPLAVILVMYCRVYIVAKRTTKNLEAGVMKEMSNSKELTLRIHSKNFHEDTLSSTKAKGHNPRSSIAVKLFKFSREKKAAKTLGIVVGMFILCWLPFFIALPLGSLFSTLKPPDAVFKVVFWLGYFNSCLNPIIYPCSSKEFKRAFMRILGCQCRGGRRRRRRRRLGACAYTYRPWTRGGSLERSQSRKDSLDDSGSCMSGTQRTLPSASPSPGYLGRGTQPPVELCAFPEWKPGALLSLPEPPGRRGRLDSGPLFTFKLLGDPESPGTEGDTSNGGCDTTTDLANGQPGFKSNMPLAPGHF
- Sequence (P23944 whole entry): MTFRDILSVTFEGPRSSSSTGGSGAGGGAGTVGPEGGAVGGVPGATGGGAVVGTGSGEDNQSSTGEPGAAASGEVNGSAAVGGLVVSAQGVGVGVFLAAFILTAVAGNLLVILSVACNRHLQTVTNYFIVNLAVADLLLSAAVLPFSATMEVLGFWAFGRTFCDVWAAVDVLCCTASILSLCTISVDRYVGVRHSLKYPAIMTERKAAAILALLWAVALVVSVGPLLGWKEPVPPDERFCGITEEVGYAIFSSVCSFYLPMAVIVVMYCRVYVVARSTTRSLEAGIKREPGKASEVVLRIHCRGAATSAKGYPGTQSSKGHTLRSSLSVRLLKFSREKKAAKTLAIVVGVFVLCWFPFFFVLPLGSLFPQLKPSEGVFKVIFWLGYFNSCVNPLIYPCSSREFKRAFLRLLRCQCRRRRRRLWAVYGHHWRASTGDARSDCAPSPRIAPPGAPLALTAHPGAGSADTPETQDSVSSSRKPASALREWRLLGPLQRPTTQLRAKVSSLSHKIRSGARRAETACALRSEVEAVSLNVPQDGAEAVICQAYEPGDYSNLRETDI
- Sequence (P43140 whole entry): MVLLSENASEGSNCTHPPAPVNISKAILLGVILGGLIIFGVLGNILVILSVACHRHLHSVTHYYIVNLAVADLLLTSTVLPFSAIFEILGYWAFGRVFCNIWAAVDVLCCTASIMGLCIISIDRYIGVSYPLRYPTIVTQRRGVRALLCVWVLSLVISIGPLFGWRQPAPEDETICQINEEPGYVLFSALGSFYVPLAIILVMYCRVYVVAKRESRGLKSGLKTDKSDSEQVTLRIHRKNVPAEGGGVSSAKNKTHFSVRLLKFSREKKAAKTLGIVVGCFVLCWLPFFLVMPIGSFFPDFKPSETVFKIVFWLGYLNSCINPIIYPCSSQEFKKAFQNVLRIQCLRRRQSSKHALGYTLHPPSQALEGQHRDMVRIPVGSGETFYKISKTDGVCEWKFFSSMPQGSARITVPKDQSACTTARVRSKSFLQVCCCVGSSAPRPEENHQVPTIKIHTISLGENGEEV
- experiment_summary: Inhibition of [3H]prazosin binding to alpha-1 adrenergic receptor from rat cortical membranes
- Type: cell membranes, Membrane
measurement_name: IC50 (nM)
Could you give me the number in nM? Just the number is fine.

Examples with answers:
>>> reported("O=C1NCCN1CCN1CCN([C@@H]2C[C@@H](c3ccc(F)cc3)c3ccccc32)CC1 (stereo in doubt; 27) [IRINDALONE]")
670
>>> reported("CN1CCN(CCN2CCN([C@@H]3C[C@@H](c4ccc(F)cc4)c4ccc(F)cc43)CC2)C1=O")
11

Consider the additional compound presented here.
Returns the measured IC50 for the input compound. Input: Cl.Cl.O=c1[nH]c2ccccc2c(=O)n1CCN1CCN(C2CC(c3ccc(F)cc3)c3ccccc32)CC1 (centres undefined)
5.5

----------
- assay_system: D(2) dopamine receptor (Rattus norvegicus)
- Sequence (P61169 whole entry): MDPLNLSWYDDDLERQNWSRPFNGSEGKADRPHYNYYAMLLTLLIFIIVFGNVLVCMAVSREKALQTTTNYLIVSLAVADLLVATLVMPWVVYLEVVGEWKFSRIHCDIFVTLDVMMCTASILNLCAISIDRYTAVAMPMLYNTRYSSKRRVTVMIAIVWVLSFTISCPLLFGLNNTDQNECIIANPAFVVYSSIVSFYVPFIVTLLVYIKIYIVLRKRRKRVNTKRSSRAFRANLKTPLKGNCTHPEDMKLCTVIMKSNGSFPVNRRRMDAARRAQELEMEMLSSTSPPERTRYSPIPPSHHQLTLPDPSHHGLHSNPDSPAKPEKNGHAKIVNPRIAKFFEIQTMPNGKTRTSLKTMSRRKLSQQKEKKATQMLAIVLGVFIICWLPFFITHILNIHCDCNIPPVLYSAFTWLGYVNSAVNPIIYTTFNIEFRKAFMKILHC
- experiment_summary: Inhibition of [3H]spiperone binding to Dopamine receptor D2 from rat striatal membranes
pIC50: −log10 of the molar value.
measurement_name: pIC50

Examples with answers:
>>> reported("Fc1ccc(C2CC(N3CCNCC3)c3ccccc32)cc1 (configuration not stated)")
5.72
>>> reported("O=C(O)/C=C\\C(=O)O.O=C(O)/C=C\\C(=O)O.O=C1NCCN1CCN1CCN(C2CC(c3ccccc3)c3ccccc32)CC1 (configuration not stated)")
5.72
>>> reported("O=C1NCCN1CCN1CCN([C@@H]2C[C@@H](c3ccc(F)cc3)c3ccccc32)CC1 (stereo in doubt; 27) [IRINDALONE]")
5.34
>>> reported("O=C(O)/C=C\\C(=O)O.O=C(O)/C=C\\C(=O)O.O=C1NCCN1CCN1CCN([C@H]2C[C@H](c3ccc(F)cc3)c3ccc(F)cc32)CC1")
5.35

P: Cl.Cl.OC1=NCCN1CCCN1CCN(C2CC(c3ccc(F)cc3)c3ccc(F)cc32)CC1 (configuration not stated)
Q: O=C1NCCN1CCN1CCN(C2CCc3ccccc32)CC1 (configuration not stated)
Looking only at measured pIC50, which entry is lower, P or Q ? Pick one; state its label.
Q
